# credit: PubChem BioAssay

- Tgt: Dihydroorotate dehydrogenase (quinone), mitochondrial (Plasmodium falciparum (isolate 3D7))
- Experimental Details: PfDHODH enzyme inhibitors, primary screen, biochemical, C-terminal His tag, absorbance 600 nm (AID 1175);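 further: recombinant parasite enzyme with a five histidine tag at its C terminus; test concentration not given here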
- Condition Notes: DCIP absorbance 600 nm, higher = more signal, called active from +8 up or from −8 down
Observed Property: composite z-score
Answers are plain numbers.

Below, each entry is followed by its recorded composite z-score result.
CCOC(=O)C[C@H]1[C@H](OC(=O)c2ccc(-c3ccccc3)cc2)[C@@H](NC(=O)c2ccc3ccccc3c2)c2cc(OCCCO)ccc2N1C(=O)c1ccc2ccccc2n1: -0.746
O=C(O)[C@H]1C[C@H]2C(=O)N3CCC[C@H]3C(=O)N2[C@H]1c1cccc(OCCO)c1: -0.117
CC(=O)NCCCC[C@@H]1NC(=O)[C@@H]2C[C@H](C(=O)O)[C@H](c3ccc(O)cc3)N2C1=O: 0.435

Hi! Can you tell me composite z-score for each of these compounds?
1. C=CCOC(=O)[C@@H]1[C@H]2C(=O)O[C@H](c3ccccc3)[C@H](c3ccccc3)N2[C@H](c2ccc(OCCOC(=O)[C@H]3C[C@H]4C(=O)N[C@@H](CC(C)C)C(=O)N4[C@H]3c3ccc(O)cc3)cc2)[C@@]12C(=O)Nc1ccc(I)cc12
2. CCOc1cc(C(O)C2C=CC3C(=O)N(C)C(=O)C3N2N2CCCCC2)ccc1O (stereo not given)

Reply:
1: 0.106; 2: 0.66
